Experiment: water solubility of the compound of Formula 1
Format: physicochemical
Settings: pH 6.8, aqueous buffer

[
  {
    "MOL SMILES": "Cc1nc2c(O[C@H]3CCOc4cc(F)cc(F)c43)cc(C(=O)N(C)C)cc2[nH]1",
    "solubility / µg/mL": 20
  }
]

====

Assay: water solubility of the compound of Formula 1
Assay type: physicochemical
Details: aqueous buffer, pH 3.0, acid conditions

[
  {
    "COMPOUND": "Cc1nc2c(O[C@H]3CCOc4cc(F)cc(F)c43)cc(C(=O)N(C)C)cc2[nH]1 [Formula 1]",
    "solubility": "700 µg/mL"
  }
]

// provenance: patent US10828253B2
